Where do the numbers come from? From patent US9944645B2.

molecular target: c-Met kinase (h-Met; histidine-tagged c-Met catalytic domain fusion protein) (Homo sapiens (Human), UniProt P08581); experiment: In Vitro c-Met Kinase Enzyme Assays; conditions: phosphorylation of poly Glu-Tyr, 5 μM ATP, 25 minutes at 30° C.
Sequence (P08581 1078-1345): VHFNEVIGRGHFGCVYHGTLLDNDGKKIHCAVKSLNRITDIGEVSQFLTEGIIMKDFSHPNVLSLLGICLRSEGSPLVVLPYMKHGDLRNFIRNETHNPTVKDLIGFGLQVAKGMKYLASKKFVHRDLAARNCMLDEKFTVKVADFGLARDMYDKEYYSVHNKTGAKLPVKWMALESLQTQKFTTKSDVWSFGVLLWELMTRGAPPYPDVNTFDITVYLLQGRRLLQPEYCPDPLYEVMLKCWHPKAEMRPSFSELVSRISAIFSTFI
pIC50: −log10 of the molar value.
Observable: pIC50

// known answers, use as guide
CCNC(=O)Nc1cccc(Cc2cnc3ncc(-c4ccc(Br)c(F)c4)nn23)c1 [Example 192] ... > 6.30
CCOC(=O)N1CCC(n2cc(-c3cnc4ncc(C5(c6ccc7ncccc7c6)CC5)n4c3)cn2)CC1 [Example 83] ... > 6.30
O=C(NC1CC1)c1cc(F)c(-c2cnc3ncc(C4(c5ccc6ncccc6c5)CC4)n3c2)cc1F [Example 79] ... > 6.30
O=C(N[C@H]1CC[C@H](O)CC1)c1ccc(-c2cnc3ncc(Cc4ccc5ncccc5c4)n3n2)cc1F [Example 128] ... > 6.30
CNC(=O)c1cccc(-c2cnc3ncc(C4(c5ccc6ncccc6c5)CC4)n3c2)c1 [Example 49] ... > 6.30
CC(C)(C)[C@H](NC(=O)c1ccc(-c2cnc3ncc(C4(c5ccc6ncccc6c5)CC4)n3c2)cc1F)C(=O)N1CCC1 [Example 198] ... > 6.30

What value of pIC50 has been recorded for this entry: C[C@H](NC(=O)c1ccc(-c2cnc3ncc(C4(c5ccc6ncccc6c5)CC4)n3c2)cn1)C(=O)N(C)C [Example 61]
> 6.30

What value of pIC50 has been recorded for this entry: CC(Oc1ccc(-c2cnc3ncc(C4(c5ccc6ncccc6c5)CC4)n3c2)cc1F)C(=O)N1CCCC1 (stereo not drawn) [Example 21]
> 6.30

What value of pIC50 has been recorded for this entry: CC(COc1ccccn1)NC(=O)c1ccc(-c2cnc3ncc(C4(c5ccc6ncccc6c5)CC4)n3c2)cc1Cl (stereo not drawn) [Example 180]
> 6.30
